molecular target: insulin receptor of C2C12 mouse myoblasts (mouse, UniProt P15208 28-1372); assay: cell-based or functional assay
Sequence (P15208 28-1372): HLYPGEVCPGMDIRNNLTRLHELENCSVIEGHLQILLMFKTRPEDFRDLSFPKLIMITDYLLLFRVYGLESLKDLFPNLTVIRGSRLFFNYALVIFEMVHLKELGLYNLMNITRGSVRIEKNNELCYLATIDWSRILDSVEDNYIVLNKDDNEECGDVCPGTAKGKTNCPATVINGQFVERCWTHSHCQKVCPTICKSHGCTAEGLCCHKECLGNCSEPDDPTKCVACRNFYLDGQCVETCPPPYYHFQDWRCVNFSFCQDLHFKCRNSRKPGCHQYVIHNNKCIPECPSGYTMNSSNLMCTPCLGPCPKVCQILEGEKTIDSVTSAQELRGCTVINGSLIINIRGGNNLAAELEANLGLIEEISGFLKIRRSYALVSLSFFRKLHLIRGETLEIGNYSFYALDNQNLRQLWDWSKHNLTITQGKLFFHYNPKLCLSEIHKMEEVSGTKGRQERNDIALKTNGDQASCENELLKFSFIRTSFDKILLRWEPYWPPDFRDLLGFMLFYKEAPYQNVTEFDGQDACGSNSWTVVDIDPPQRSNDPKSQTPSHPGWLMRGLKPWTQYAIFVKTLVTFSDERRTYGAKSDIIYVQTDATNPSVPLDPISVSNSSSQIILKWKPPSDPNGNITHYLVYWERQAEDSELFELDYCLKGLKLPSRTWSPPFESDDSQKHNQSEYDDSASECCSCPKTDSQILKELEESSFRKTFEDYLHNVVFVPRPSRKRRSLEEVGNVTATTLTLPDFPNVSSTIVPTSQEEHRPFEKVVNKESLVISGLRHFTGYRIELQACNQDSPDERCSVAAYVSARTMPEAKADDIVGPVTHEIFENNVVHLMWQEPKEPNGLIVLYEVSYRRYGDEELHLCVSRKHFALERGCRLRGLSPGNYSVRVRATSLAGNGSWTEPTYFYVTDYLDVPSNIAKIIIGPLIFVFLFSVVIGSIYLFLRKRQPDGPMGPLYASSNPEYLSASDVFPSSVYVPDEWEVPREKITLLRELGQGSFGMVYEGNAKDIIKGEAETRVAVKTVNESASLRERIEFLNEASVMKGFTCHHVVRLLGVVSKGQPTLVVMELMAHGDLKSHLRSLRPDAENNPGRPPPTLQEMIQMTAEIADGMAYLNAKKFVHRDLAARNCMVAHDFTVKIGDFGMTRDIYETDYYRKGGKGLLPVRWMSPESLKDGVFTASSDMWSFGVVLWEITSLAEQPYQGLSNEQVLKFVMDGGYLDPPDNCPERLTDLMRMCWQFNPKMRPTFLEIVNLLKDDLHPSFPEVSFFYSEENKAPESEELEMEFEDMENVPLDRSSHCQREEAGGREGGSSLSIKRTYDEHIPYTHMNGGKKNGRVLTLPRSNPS
AKT phosphorylation activity (EC50) in C2C12 mouse myoblasts (HTRF phospho-S473) values, listed per item
A number alone suffices; assume nM.

Worked set:
BINDER	UNITS_SYMBOL	MEASURED
fusion protein 1 (insulin analog 1 + L2 + IgG2 Fc1) (Fc fusion) FVNQHLCGEHLVEALYLVCGERGFHYGGGGGGSGGGGGIVEQCCESICSLEQLENYCGGGGGQGGGGQGGGGQGGGGGECPPCPAPPVAGPSVFLFPPKPKDTLMISRTPEVTCVVVDVSHEDPEVQFNWYVDGVEVHNAKTKPREEQFNSTFRVVSVLTVVHQDWLNGKEYKCKVSNKGLPAPIEKTISKTKGQPREPQVYTLPPSREEMTKNQVSLTCLVKGFYPSDIAVEWESNGQPENNYKTTPPMLDSDGSFFLYSKLTVDKSRWQQGNVFSCSVMHEALHNHYTQKSLSLSPG	nM	490
fusion protein 6 (insulin analog 5 + L2 + IgG2 Fc1) (Fc fusion) FVNQHLCGEHLVEALYLVCGERGFHYGGGGGSGGGGGIVEQCCESICSLEQLENYCGGGGGQGGGGQGGGGQGGGGGECPPCPAPPVAGPSVFLFPPKPKDTLMISRTPEVTCVVVDVSHEDPEVQFNWYVDGVEVHNAKTKPREEQFNSTFRVVSVLTVVHQDWLNGKEYKCKVSNKGLPAPIEKTISKTKGQPREPQVYTLPPSREEMTKNQVSLTCLVKGFYPSDIAVEWESNGQPENNYKTTPPMLDSDGSFFLYSKLTVDKSRWQQGNVFSCSVMHEALHNHYTQKSLSLSPG	nM	456
fusion protein 3 (insulin analog 3 + L2 + IgG2 Fc1) (Fc fusion) FVNQHLCGSHLVEALHLVCGERGFHYGGGGGGSGGGGGIVEQCCTSICSLEQLENYCNGGGGQGGGGQGGGGQGGGGGECPPCPAPPVAGPSVFLFPPKPKDTLMISRTPEVTCVVVDVSHEDPEVQFNWYVDGVEVHNAKTKPREEQFNSTFRVVSVLTVVHQDWLNGKEYKCKVSNKGLPAPIEKTISKTKGQPREPQVYTLPPSREEMTKNQVSLTCLVKGFYPSDIAVEWESNGQPENNYKTTPPMLDSDGSFFLYSKLTVDKSRWQQGNVFSCSVMHEALHNHYTQKSLSLSPG	nM	28.6
fusion protein 2 (insulin analog 2 + L2 + IgG2 Fc1) (Fc fusion) FVNQHLCGSHLVEALYLVCGERGFHYGGGGGGSGGGGGIVEQCCHSICSLEQLENYCGGGGGQGGGGQGGGGQGGGGGECPPCPAPPVAGPSVFLFPPKPKDTLMISRTPEVTCVVVDVSHEDPEVQFNWYVDGVEVHNAKTKPREEQFNSTFRVVSVLTVVHQDWLNGKEYKCKVSNKGLPAPIEKTISKTKGQPREPQVYTLPPSREEMTKNQVSLTCLVKGFYPSDIAVEWESNGQPENNYKTTPPMLDSDGSFFLYSKLTVDKSRWQQGNVFSCSVMHEALHNHYTQKSLSLSPG	nM	90.5
fusion protein 5 (insulin analog 1 + L2 + IgG2 Fc1) (Fc fusion) FVNQHLCGEHLVEALYLVCGERGFHYGGGGGGSGGGGGIVEQCCESICSLEQLENYCGGGGGQGGGGQGGGGQGGGGQGGGGQECPPCPAPPVAGPSVFLFPPKPKDTLMISRTPEVTCVVVDVSHEDPEVQFNWYVDGVEVHNAKTKPREEQFNSTFRVVSVLTVVHQDWLNGKEYKCKVSNKGLPAPIEKTISKTKGQPREPQVYTLPPSREEMTKNQVSLTCLVKGFYPSDIAVEWESNGQPENNYKTTPPMLDSDGSFFLYSKLTVDKSRWQQGNVFSCSVMHEALHNHYTQKSLSLSPG	nM	320

Below: the item to evaluate.
Q: Return AKT phosphorylation activity (EC50) in C2C12 mouse myoblasts (HTRF phospho-S473) (reported value) for this binder: LY3209590 (Fc fusion) FVNQHLCGSHLVEALELVCGERGFHYGGGGGGSGGGGGIVEQCCTSTCSLDQLENYCGGGGGQGGGGQGGGGQGGGGGECPPCPAPPVAGPSVFLFPPKPKDTLMISRTPEVTCVVVDVSHEDPEVQFNWYVDGVEVHNAKTKPREEQFNSTFRVVSVLTVVHQDWLNGKEYKCKVSNKGLPAPIEKTISKTKGQPREPQVYTLPPSREEMTKNQVSLTCLVKGFYPSDIAVEWESNGQPENNYKTTPPMLDSDGSFFLYSKLTVDKSRWQQGNVFSCSVMHEALHNHYTQKSLSLSPG
Result: 194
